Hey, just so you know, these numbers are from ChEMBL document CHEMBL4665664.

Test summary: Total plasma concentration in mouse at 10 mg/kg, po measured after 4 hrs by LC/MS/MS analysis
Format: ADME, organism-based
Recorded metric: concentration at 4 h (nM)
Reply numerically in nM, unit not repeated.

Prompt: Return concentration at 4 h (reported value) for this molecule: CC(C)(C)c1ccc(S(=O)(=O)N(C[C@H](O)[C@@H](N)c2ccc(OC(F)(F)F)cc2)C2CCC2)cc1
Completion: 120

* * *

Assay system: Signal peptide peptidase-like 2A (Homo sapiens, UniProt Q8TCT8)
Sequence (Q8TCT8 whole entry, the tested form may be a part): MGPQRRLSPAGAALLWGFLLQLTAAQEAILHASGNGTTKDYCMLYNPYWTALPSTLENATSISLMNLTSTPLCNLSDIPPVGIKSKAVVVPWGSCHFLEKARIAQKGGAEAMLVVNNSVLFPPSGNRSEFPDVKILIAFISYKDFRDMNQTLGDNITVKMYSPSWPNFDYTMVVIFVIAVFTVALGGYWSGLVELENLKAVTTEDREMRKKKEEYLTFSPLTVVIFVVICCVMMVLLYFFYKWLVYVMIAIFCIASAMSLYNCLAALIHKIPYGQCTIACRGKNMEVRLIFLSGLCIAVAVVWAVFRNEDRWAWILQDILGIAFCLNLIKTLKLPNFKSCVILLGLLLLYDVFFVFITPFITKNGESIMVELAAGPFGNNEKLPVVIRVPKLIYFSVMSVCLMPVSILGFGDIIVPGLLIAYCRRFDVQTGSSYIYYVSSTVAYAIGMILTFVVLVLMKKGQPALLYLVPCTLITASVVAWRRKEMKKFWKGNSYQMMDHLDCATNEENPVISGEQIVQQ
Test summary: Inhibition of human SPPL2a expressed in HEK293 cells cotransfected with Gal4 luciferase reporter plasmid and VP16-TNFalpha(1-76)-NTF incubated for 24 hrs by luciferase reporter gene assay based luminescence assay
Recorded metric: IC50 (µM)
The answer is to be given in µM; state only the numeric part.

Prompt: State, for Signal peptide peptidase-like 2A (Homo sapiens, UniProt Q8TCT8), measured IC50 of the molecule listed here: CC(C)CN(C[C@H](O)[C@@H](N)Cc1ccccc1)S(=O)(=O)c1ccc(Cl)c(Cl)c1
Completion: 0.86

Prompt: Under Signal peptide peptidase-like 2A (Homo sapiens, UniProt Q8TCT8), report IC50 for CC(C)CN(C[C@H](O)[C@H](Cc1ccccc1)NC(=O)OCc1ccccc1)S(=O)(=O)c1ccc(Cl)c(Cl)c1
Completion: 4.3

* * *

Test summary: Total plasma concentration in mouse at 30 mg/kg, po measured after 4 hrs by LC/MS/MS analysis
Assay type: ADME, organism-based
Recorded metric: concentration at 4 h

Prompt: Identify the reported concentration at 4 h for the following entry. CC(C)(C)c1ccc(S(=O)(=O)N(C[C@H](O)[C@@H](N)c2ccc(OC(F)(F)F)cc2)C2CCC2)cc1
Completion: 250 nM

* * *

Assay system: Signal peptide peptidase-like 2B (Homo sapiens)
Sequence (Q8TCT7 whole entry): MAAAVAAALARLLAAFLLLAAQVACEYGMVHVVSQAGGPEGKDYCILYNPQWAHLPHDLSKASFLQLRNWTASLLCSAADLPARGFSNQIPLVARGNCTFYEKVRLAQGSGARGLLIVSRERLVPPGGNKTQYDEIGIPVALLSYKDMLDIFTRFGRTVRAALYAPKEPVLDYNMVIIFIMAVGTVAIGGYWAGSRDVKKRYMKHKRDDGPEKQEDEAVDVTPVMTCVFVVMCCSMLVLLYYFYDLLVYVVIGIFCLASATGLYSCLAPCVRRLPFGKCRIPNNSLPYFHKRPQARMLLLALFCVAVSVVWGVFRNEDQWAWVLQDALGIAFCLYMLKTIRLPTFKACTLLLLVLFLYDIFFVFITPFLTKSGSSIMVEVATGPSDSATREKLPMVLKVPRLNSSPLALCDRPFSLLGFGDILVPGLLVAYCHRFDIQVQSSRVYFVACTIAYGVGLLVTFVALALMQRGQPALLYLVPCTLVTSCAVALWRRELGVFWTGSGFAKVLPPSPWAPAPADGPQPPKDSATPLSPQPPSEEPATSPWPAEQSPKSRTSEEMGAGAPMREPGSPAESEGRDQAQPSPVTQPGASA
Test summary: Inhibition of SPPL2b in human U2OS cells cotransfected with EGFP-labeled TNFalpha (1 to 76 residues)-NTF incubated for 24 hrs by Hoechst staining based Cellomics ArrayScan analysis
Recorded metric: IC50 (nM)
Response body: numeric value in nM, unit text excluded.

Prompt: Return IC50 for the following compound: CC(C)(C)c1ccc(S(=O)(=O)N(C[C@H](O)[C@@H](N)c2ccc(OC(F)(F)F)cc2)C2CCC2)cc1
Completion: 270
